Test system: murine macrophages (J774.1A)
Assay: Cytotoxicity, MTS assay
Conditions: 24 h
Peptide text beside a SMILES is read from it.
List of EC50 values.
Lab book: enter the figure in µM, no units written.

>  <molecule>
CC[C@H](C)[C@H](NC(=O)[C@H](CCCNC(=N)N)NC(=O)[C@H](CCCNC(=N)N)NC(=O)[C@H](CC(C)C)NC(=O)[C@@H](N)Cc1c[nH]c2ccccc12)C(=O)N[C@@H](CCCCN)C(=O)N[C@@H](C)C(=O)N[C@@H](Cc1c[nH]c2ccccc12)C(=O)N[C@@H](CC(C)C)C(=O)N[C@@H](CCCNC(=N)N)C(=O)N[C@@H](CCCNC(=N)N)C(=O)N[C@@H](CCCCN)C(=O)N[C@@H](CCCNC(=N)N)C(=O)N[C@@H](CCCCN)C(=O)O [RR3] (H-WLRRIKAWLRRKRK-OH; N-terminus and C-terminus assumed)

>  <reported.property>
EC50

>  <uom>
µM

>  <result>
128

$$$$

Form: molecule = CC[C@H](C)[C@H](NC(=O)[C@H](Cc1c[nH]c2ccccc12)NC(=O)[C@H](CCCCN)NC(=O)[C@H](CCCCN)NC(=O)[C@@H](NC(=O)[C@H](CCCNC(=N)N)NC(=O)[C@H](CCCNC(=N)N)NC(=O)[C@@H](NC(=O)[C@@H](N)Cc1c[nH]c2ccccc12)[C@@H](C)CC)[C@@H](C)CC)C(=O)N[C@@H](CCCNC(=N)N)C(=O)N[C@@H](CCCNC(=N)N)C(=O)N[C@H](C(=O)N[C@@H](Cc1c[nH]cn1)C(=O)N[C@@H](CCCCN)C(=O)O)C(C)C [RR2] (H-WIRRIKKWIRRVHK-OH; N-terminus and C-terminus assumed) ; EC50 = 128
